# System: PC-3
# measurement.protocol: NCI tumour cell line growth inhibition, 48 h
The source made the active and inactive calls. Cut-off read from the data, not from the text of the source: active = GI50 up to about 1.1 µM and inactive = higher.
endpoint.label: GI50

- Cc1ccc(S(=O)(=O)N2CCc3cc(O)c([N+](=O)[O-])cc32)cc1: > 100 µM (inactive)
- O=C1NC(=O)c2ccc([N+](=O)[O-])c3cccc1c23: 17.4 µM (inactive)
- C[C@]1(O)CC[C@H]2[C@@H]3CCc4cc(O)ccc4[C@H]3CC[C@@]21C: 1.87 µM (inactive)
- O=C(O)/C(O)=C\C(=O)c1ccc(Br)cc1: > 100 µM (inactive)
- Cc1c(C)n(-c2ccccc2)c2nc(S(C)(=O)=O)nc(S(C)(=O)=O)c12: 5.06 µM (inactive)
- O=C1C(Br)=CC2(C=C1Br)CCNC1=C2C(=O)c2cccnc2C1=O: 13.4 µM (inactive)
- O=C1Nc2cccc3cc(NCC(O)CCl)cc1c23 (configuration not stated): 38.8 µM (inactive)

----------
# System: NCI-H522
# measurement.protocol: NCI tumour cell line growth inhibition, 48 h
Calls of active or inactive are those of the source. No stated cut-off is given here; in the data, active = GI50 up to about 1.1 µM and inactive = higher.
Below is a list of entries, each paired with its recorded GI50 value.
endpoint.label: GI50

* COc1ccccc1/N=N/c1c(-c2ccccc2)nn(C(=O)CC(=O)Nc2cccc(C)c2)c1-c1ccccc1 | 16.4 µM (inactive)
* COc1ccc(C2CC3(c4ccccc4)ON=C(c4ccccc4)N3c3ccccc3S2)cc1 (stereo not drawn) | > 100 µM (inactive)
* CC1=NN(C(=O)CC(=O)Nc2cccc(Cl)c2)C(=O)C1/N=N/c1ccc(C(=O)O)cc1 (stereo not drawn) | > 100 µM (inactive)
* Cc1cc(C[C@H]2O[C@@H]3OC(C)(C)O[C@@H]3[C@H]3OC(C)(C)O[C@H]32)c2ccccc2n1 | 16 µM (inactive)
* Cc1ccc(NC(=O)NC23CC4CC(CC(F)(C4)C2)C3)cc1 | 99.5 µM (inactive)
* CCc1ncc(CO)n1Cc1cccc2ccccc12 | > 100 µM (inactive)
* CN(C)CC(C)(C)CN1c2ccccc2Sc2ccccc21 | 13.2 µM (inactive)
* COC1(OC)c2occc2C(=N)c2ccc(=O)oc21 | > 100 µM (inactive)

----------
# Tested on: CCRF-CEM
# measurement.protocol: NCI tumour cell line growth inhibition, 48 h
Activity calls are given as the source filed them. Cut-off read from the data, not from the text of the source: active = GI50 up to about 1.1 µM and inactive = higher.
Possible outcomes: true (active), false (inactive)

- CCN(CC)c1ccc2cc(-c3nnc(-c4ccccc4)[nH]3)c(=O)oc2c1: false
- CCO/C=N/C1=C(C#N)C(c2ccc(OC)c(OC)c2)c2c(-c3ccccc3)nn(-c3ccccc3)c2O1 (centres undefined): false
- CCCC(=O)OCC1OC(n2cc(F)c(=O)[nH]c2=O)CC1O (centres undefined): true
- CSc1nc2c(ncn2C2OC(CO)C(O)C(O)C2O)c(=O)[nH]1 (centres undefined): false
- COc1ccc2nc(NCN3C(=O)c4ccccc4C3=O)sc2c1: false
- CCOC12OC3=C(CC1CC1=C(CCC1=O)O2)C(=O)CC3 (centres undefined): false
- CC(C)c1cccc(C(C)C)c1NC(=S)Nc1ccccc1: false
- O=C1Nc2ccc(Br)cc2C1=Nc1cccnc1: false
- CN1C/C(=C\c2ccccc2)C2=NN(C(N)=S)[C@H](c3ccccc3)[C@@H]2C1: false
- Cc1cc(=O)n(-c2ccccc2)c(=O)o1: false
- Cc1c(C)n(-c2ccccc2)c2nc(S(C)(=O)=O)nc(S(C)(=O)=O)c12: true
- O=C(/N=C(\Nc1ccccc1)SCCS/C(=N/C(=O)c1cccs1)Nc1ccccc1)c1cccs1: false
- Cc1cc(NS(=O)(=O)c2ccc(NC(=O)COC(=O)c3cccc4c(=O)c5ccccc5[nH]c34)cc2)no1: false
- Cn1c(=O)oc2cc(C(=O)CN3CCN(Cc4ccc5c(c4)OCO5)CC3)c(Cl)cc21: false
- CC(=O)OC1CC2OC(Cc3ccccc32)O1 (centres undefined): false
- CC(C)NC(=O)OCCN=c1c2ccccc2ccc2ccccc12: false
- COc1ccc(/C(Cl)=C(\C=O)c2ccc(OC)c(OC)c2)cc1OC: false
- CCc1c(Cc2cc(C)cc(C)c2)n2c(nc1=O)SCC2CBr (centres undefined): false
- Cc1cccc2c1[nH]c1[nH]c(=O)[nH]c(=O)c12: false
